target: Voltage-dependent L-type calcium channel subunit alpha-1C (Rattus norvegicus, UniProt P22002); type: functional; further: assay procedure not described here
Sequence (P22002 whole entry): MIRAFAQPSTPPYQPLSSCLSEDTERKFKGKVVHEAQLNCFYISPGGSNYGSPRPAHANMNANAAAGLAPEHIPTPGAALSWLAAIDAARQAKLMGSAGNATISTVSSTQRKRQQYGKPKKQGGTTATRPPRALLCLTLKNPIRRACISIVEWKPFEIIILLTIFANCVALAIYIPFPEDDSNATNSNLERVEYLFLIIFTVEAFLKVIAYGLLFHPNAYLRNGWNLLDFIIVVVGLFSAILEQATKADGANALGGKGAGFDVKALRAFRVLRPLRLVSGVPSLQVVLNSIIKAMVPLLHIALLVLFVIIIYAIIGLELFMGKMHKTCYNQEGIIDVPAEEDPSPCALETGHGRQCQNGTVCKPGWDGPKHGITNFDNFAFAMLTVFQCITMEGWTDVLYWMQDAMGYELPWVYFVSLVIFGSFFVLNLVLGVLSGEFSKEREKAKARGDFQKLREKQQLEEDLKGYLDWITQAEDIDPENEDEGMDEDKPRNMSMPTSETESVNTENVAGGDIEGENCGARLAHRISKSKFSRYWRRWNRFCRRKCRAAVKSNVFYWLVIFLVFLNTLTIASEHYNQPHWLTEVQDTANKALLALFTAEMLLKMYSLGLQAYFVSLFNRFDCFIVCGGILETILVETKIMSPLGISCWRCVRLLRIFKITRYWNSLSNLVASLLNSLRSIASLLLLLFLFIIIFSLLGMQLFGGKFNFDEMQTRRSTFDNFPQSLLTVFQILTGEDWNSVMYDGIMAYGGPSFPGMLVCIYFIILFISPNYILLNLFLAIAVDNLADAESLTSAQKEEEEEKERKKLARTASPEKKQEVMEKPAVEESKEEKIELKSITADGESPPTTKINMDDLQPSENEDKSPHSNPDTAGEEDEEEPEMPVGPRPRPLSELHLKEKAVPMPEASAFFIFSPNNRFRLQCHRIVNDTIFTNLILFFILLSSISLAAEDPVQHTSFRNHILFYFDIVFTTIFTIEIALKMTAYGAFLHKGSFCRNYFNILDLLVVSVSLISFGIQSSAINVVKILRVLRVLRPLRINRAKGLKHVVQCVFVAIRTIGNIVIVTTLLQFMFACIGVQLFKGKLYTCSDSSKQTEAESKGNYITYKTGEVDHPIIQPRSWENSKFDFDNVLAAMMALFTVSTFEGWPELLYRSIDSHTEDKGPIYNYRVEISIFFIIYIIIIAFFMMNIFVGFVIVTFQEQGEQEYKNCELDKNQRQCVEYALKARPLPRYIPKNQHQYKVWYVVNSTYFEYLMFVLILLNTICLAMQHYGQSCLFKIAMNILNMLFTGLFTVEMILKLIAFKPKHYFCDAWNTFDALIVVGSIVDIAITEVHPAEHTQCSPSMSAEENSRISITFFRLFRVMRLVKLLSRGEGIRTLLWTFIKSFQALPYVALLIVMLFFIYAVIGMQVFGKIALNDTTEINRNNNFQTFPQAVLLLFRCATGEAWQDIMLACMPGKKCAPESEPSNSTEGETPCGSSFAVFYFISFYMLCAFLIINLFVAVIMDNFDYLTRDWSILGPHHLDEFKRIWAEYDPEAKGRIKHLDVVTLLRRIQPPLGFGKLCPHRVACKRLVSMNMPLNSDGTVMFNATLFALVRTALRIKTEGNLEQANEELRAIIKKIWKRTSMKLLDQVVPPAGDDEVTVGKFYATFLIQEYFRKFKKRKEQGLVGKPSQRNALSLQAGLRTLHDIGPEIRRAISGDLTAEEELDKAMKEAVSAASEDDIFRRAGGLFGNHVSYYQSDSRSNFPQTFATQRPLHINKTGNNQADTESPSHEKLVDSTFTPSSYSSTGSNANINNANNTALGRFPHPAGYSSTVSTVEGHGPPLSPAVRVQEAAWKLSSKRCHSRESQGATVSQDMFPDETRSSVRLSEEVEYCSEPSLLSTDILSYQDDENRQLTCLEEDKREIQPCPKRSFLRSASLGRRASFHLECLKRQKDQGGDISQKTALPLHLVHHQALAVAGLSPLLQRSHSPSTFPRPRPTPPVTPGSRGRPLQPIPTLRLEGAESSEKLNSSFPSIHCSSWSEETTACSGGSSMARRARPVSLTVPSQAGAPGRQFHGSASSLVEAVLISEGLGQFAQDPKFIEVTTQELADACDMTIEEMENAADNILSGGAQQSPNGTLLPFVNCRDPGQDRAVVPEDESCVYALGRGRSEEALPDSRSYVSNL
Quantity Kind: AC50

[in] Which AC50 value belongs to C#C[C@]1(O)CC[C@H]2[C@@H]3CCC4=CC(=O)CCC4=C3C=C[C@@]21CC ?
[out] > 30 µM

[in] Consider next the compound CNCCC=C1c2ccccc2CCc2ccccc21 in the same way.
[out] > 30 µM

[in] Field entry: Cc1cc2nc3c(=O)[nH]c(=O)nc-3n(C[C@H](O)[C@H](O)[C@H](O)COP(=O)(O)O)c2cc1C [RIBOFLAVIN 5'-PHOSPHATE]
[out] 15 µM

[in] Another compound: CCN(CC)C(=O)C1CN2CCc3cc(OC)c(OC)cc3C2CC1OC(C)=O (centres undefined) [BENZQUINAMIDE]
[out] > 10 µM

[in] And the next one, Clc1ccc(C(Cn2ccnc2)OCc2ccc(Sc3ccccc3)cc2)c(Cl)c1 (centres undefined) ?
[out] 12 µM

[in] // same read-out, input: N=C(N)c1ccc2cc(OC(=O)c3ccc(N=C(N)N)cc3)ccc2c1
[out] > 30 µM

[in] Likewise for CC(C)CC(N(C)C)C1(c2ccc(Cl)cc2)CCC1 (centres undefined) ?
[out] > 10 µM

[in] Quick one: CC1(C)C(C=C(Cl)Cl)C1C(=O)OCc1cccc(Oc2ccccc2)c1 (centres undefined)
[out] > 10 µM

[in] Record: CC(C)N(CCCCOCC(=O)NS(C)(=O)=O)c1cnc(-c2ccccc2)c(-c2ccccc2)n1
[out] > 30 µM

[in] Next record, please: C=CC(N)CCC(=O)O (centres undefined)
[out] > 10 µM

[in] Then this compound: CC(=O)OCC[N+](C)(C)C
[out] > 10 µM

[in] Ok, now CCCOC(C(=O)OC1CCN(C)CC1)(c1ccccc1)c1ccccc1
[out] > 30 µM

[in] Also need NS(=O)(=O)c1cc(C2(O)NC(=O)c3ccccc32)ccc1Cl (centres undefined) , thanks.
[out] > 10 µM

[in] Try the compound CCCCNc1ccc(C(=O)OCCN(C)C)cc1
[out] > 10 µM

[in] Now the compound NC(=O)c1ncn([C@@H]2O[C@H](CO)[C@@H](O)[C@H]2O)n1
[out] > 10 µM

[in] And what about the compound COCCCOc1ccnc(C[S+]([O-])c2nc3ccccc3[nH]2)c1C (centres undefined) ?
[out] > 10 µM

[in] Record: O=C1Nc2ccc(Cl)cc2C(c2ccccc2)=NC1O (centres undefined)
[out] > 10 µM

[in] Now consider CN1[C@@H]2CC[C@H]1C[C@@H](OC(=O)c1c[nH]c3ccccc13)C2 .
[out] > 30 µM

[in] What about Cn1c(=O)c2[nH]cnc2n(C)c1=O ?
[out] > 10 µM

###

Assignment: determine reported AC50 for the given compounds.
molecular target: Sodium-dependent noradrenaline transporter (Homo sapiens); further: assay procedure not described here
Sequence (P23975 whole entry): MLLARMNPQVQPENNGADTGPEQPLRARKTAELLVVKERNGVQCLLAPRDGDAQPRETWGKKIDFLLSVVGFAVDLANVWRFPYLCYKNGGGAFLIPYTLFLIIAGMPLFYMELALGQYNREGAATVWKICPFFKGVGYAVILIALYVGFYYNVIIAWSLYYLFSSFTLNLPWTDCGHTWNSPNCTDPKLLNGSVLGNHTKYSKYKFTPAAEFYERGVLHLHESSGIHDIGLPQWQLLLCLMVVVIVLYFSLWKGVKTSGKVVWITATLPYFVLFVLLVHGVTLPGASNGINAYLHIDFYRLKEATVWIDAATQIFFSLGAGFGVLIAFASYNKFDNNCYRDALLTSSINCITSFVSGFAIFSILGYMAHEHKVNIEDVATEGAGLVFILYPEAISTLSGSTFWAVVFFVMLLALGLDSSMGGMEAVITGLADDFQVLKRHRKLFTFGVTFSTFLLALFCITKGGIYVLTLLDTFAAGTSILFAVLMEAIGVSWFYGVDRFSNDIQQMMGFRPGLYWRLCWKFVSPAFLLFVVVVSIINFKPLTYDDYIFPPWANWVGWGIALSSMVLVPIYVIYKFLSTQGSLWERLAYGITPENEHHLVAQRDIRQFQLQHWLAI

[in] Which AC50 value is on record for CCCN(CC)C(CC)C(=O)Nc1c(C)cccc1C (stereo not drawn) [ETIDOCAINE] ?
[out] > 30 µM

[in] What do you get for CC1(C)C(/C=C/C=C/C=C/C=C2\N(CCCCS(=O)(=O)O)c3ccc4ccccc4c3C2(C)C)=[N+](CCCCS(=O)(=O)[O-])c2ccc3ccccc3c21 [INDOCYANINE GREEN ACID FORM] ?
[out] 5.2 µM

[in] Check CCN(CC)CC(=O)Oc1ccc(NC(C)=O)cc1 [PROPACETAMOL] too.
[out] > 30 µM

[in] Cool, now CCCC(C)(COC(N)=O)COC(=O)NC(C)C (stereo not drawn) [CARISOPRODOL]
[out] > 10 µM

[in] Also CC(=O)S[C@@H]1CC2=CC(=O)CC[C@]2(C)[C@H]2CC[C@@]3(C)[C@@H](CC[C@@]34CCC(=O)O4)[C@H]12 [SPIRONOLACTONE] ?
[out] > 30 µM

[in] Next compound: CCCC[C@H](C)C[C@H](O)/C=C/[C@H]1[C@H](O)CC(=O)[C@@H]1CCCC/C=C/C(=O)O [LIMAPROST]
[out] > 30 µM

[in] Consider next the compound CO[C@@]1(NC(=O)Cc2cccs2)C(=O)N2C(C(=O)O)=C(COC(N)=O)CS[C@@H]21 [CEFOXITIN] in the same way.
[out] > 30 µM

[in] Here is the next compound: N[C@H](Cc1cc(I)c(Oc2cc(I)c(O)c(I)c2)c(I)c1)C(=O)O [DEXTROTHYROXINE]
[out] > 30 µM

[in] Here is the next compound: COCCCOc1ccnc(C[S+]([O-])c2nc3ccccc3[nH]2)c1C (stereo not drawn) [RABEPRAZOLE]
[out] > 10 µM

[in] Now give it for CCCNC(C)C(=O)Nc1ccccc1C (stereo not drawn) [PRILOCAINE] too.
[out] > 30 µM

[in] Lookup Cn1c(=O)c2[nH]cnc2n(C)c1=O [THEOPHYLLINE]
[out] > 30 µM

[in] Please answer likewise for CCOC(=O)NNc1ccc(N(CC)CC(C)O)nn1 (stereo not drawn) [CADRALAZINE]
[out] > 30 µM

[in] // same read-out, input: COc1cccc(N(C)C(=S)Oc2ccc3c(c2)CCCC3)n1 [LIRANAFTATE]
[out] > 30 µM

[in] Please do the same for CC(=O)Nc1c(I)c(C(=O)N[C@H]2C(O)O[C@H](CO)[C@@H](O)[C@@H]2O)c(I)c(N(C)C(C)=O)c1I (stereo partly drawn) [METRIZAMIDE] as well.
[out] > 10 µM

[in] Entry CC(=O)OCC(CCn1cnc2cnc(N)nc21)COC(C)=O [FAMCICLOVIR] please
[out] > 10 µM

[in] Input COC(=O)N[C@@H](C)CNc1nccc(-c2cn(C(C)C)nc2-c2cc(Cl)cc(NS(C)(=O)=O)c2F)n1 [ENCORAFENIB]
[out] > 30 µM

[in] Next entry: COC1=C(OC)C(=O)C(CCCCCCCCCCO)=C(C)C1=O [IDEBENONE]
[out] > 10 µM

[in] Quick one: Nc1nc(F)nc2c1ncn2[C@@H]1O[C@H](COP(=O)(O)O)[C@@H](O)[C@@H]1O [FLUDARABINE PHOSPHATE]
[out] > 30 µM

[in] And CO/N=C(\C(=O)N[C@@H]1C(=O)N2C(C(=O)O)=C(COC(N)=O)CS[C@H]12)c1ccco1 [CEFUROXIME] ?
[out] > 30 µM

[in] Same lookup for OCCN1CCN(CC/C=C2/c3ccccc3Sc3ccc(Cl)cc32)CC1 [ZUCLOPENTHIXOL] , please.
[out] 17.4 µM

[in] Would you kindly repeat that for O=C(O)c1ccccc1Nc1cccc(C(F)(F)F)c1 [FLUFENAMIC ACID] ?
[out] > 30 µM

[in] Please do the same for O=C1NC(=O)C(c2ccccc2)(c2ccccc2)N1 [PHENYTOIN] as well.
[out] > 30 µM

[in] Same for C[C@H]1Oc2cc(cnc2N)-c2c(nn(C)c2C#N)CN(C)C(=O)c2ccc(F)cc21 [LORLATINIB]
[out] > 30 µM

[in] Entry to check: CCCOC(C(=O)OC1CCN(C)CC1)(c1ccccc1)c1ccccc1 [PROPIVERINE]
[out] > 30 µM

[in] What do we get for NS(=O)(=O)c1cc(C2(O)NC(=O)c3ccccc32)ccc1Cl (stereo not drawn) [CHLORTHALIDONE] ?
[out] > 10 µM

[in] How about this compound: CC(=O)O[C@H]1C[C@@H]2CC[C@@H]3[C@H](CC[C@@]4(C)[C@H]3C[C@H]([N+]3(C)CCCCC3)[C@@H]4OC(C)=O)[C@@]2(C)C[C@@H]1[N+]1(C)CCCCC1 [PANCURONIUM]
[out] > 10 µM

[in] Lookup CCCCCCNC(=O)n1cc(F)c(=O)[nH]c1=O [CARMOFUR]
[out] > 30 µM

[in] Please do the same for COc1ccnc(C[S+]([O-])c2nc3ccc(OC(F)F)cc3[nH]2)c1OC (stereo not drawn) [PANTOPRAZOLE] as well.
[out] > 10 µM

[in] // query: CC(C)N(CCCCOCC(=O)NS(C)(=O)=O)c1cnc(-c2ccccc2)c(-c2ccccc2)n1 [SELEXIPAG]
[out] > 30 µM

[in] One more compound: COC(=O)[C@H](c1ccccc1Cl)N1CCc2sccc2C1 [CLOPIDOGREL]
[out] > 30 µM

[in] Same again, this time with CC(CCc1ccccc1)NC(C)C(O)c1ccc(O)cc1 (stereo not drawn) [NYLIDRIN]
[out] 11 µM

[in] Also check CN1C[C@H](C(=O)N[C@]2(C)O[C@@]3(O)[C@@H]4CCCN4C(=O)[C@H](Cc4ccccc4)N3C2=O)C[C@@H]2c3cccc4[nH]cc(c34)C[C@H]21 [DIHYDROERGOTAMINE]
[out] > 30 µM

[in] Note, next up: CCCCC1(CC)C(=O)NC(=O)NC1=O [BUTETHAL]
[out] > 30 µM
